biological target: IKZF1 (Homo sapiens, UniProt Q13422+Q96SW2); assay: Prolabel quantification of IKZF1 protein levels in 293GT cells; assay type: cell-based; conditions: Prolabel assay, read-out: IKZF1 EC50
Sequence (Q13422 whole entry): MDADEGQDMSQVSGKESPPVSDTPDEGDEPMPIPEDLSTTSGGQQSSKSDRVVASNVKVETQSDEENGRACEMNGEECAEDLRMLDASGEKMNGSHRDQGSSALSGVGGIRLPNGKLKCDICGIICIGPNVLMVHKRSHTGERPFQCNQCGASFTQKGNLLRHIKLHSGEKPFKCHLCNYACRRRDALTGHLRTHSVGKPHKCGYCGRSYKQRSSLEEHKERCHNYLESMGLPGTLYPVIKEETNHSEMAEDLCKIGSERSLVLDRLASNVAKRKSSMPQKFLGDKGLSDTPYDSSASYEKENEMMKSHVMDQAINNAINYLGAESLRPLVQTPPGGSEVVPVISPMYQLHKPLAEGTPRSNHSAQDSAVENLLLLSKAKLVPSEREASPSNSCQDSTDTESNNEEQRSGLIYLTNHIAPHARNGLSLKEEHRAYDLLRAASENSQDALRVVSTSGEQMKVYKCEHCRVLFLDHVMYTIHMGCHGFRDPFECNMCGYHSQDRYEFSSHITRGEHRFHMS
Sequence (Q96SW2 whole entry): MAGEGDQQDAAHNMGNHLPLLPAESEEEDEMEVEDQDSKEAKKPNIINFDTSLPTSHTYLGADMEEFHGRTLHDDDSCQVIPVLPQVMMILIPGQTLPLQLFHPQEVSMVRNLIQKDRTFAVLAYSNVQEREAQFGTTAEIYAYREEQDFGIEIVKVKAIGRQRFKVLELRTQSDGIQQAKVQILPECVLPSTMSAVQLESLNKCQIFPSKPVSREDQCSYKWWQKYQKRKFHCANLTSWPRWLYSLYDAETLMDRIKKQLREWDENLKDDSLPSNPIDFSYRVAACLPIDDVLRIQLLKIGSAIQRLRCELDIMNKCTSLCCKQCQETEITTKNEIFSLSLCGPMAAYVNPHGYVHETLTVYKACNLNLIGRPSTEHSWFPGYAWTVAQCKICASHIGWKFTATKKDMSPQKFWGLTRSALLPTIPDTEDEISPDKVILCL
Sequence (Q16531 whole entry partner): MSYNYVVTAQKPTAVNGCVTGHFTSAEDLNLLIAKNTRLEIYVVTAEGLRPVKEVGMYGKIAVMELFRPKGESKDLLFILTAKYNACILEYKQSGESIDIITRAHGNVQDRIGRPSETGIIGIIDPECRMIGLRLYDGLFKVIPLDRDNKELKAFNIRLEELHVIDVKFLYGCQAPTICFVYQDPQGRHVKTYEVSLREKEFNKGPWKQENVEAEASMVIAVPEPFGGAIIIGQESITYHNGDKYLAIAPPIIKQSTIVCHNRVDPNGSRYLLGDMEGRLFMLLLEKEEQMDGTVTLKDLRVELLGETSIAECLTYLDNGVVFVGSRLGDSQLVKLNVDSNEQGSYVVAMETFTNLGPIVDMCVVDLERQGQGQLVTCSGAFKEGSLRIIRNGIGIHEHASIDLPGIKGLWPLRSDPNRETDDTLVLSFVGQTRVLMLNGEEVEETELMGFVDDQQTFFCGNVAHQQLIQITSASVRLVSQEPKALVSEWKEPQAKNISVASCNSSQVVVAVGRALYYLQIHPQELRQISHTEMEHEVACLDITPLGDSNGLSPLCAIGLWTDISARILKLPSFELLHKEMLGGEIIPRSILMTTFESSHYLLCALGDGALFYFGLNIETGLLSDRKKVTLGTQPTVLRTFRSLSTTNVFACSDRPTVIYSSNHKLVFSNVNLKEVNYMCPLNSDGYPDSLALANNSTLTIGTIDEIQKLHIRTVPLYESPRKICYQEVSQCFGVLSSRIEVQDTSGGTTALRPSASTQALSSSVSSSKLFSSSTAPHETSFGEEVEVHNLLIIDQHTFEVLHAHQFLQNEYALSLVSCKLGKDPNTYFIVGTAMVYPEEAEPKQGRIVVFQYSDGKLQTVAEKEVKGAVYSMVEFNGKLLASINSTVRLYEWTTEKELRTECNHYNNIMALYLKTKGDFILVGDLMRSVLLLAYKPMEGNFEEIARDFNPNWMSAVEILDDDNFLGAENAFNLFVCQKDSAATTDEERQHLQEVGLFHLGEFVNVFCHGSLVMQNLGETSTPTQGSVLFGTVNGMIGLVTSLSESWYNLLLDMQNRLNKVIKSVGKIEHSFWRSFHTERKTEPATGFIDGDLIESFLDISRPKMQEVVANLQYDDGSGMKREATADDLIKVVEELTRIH
Property: DC50; scope: individual molecules

> print(dat)
                                   molecule  readout  reported
1  COc1ccc(CN2CCC(c3ccc4c(c3)CN(C3CCC(=O)NC3=O)C4=O)CC2)cc1 (centres unmarked)     DC50   > 50 µM
2  CC(C)CN1CCC(c2ccc3c(c2)CN(C2CCC(=O)NC2=O)C3=O)CC1 (centres unmarked)     DC50   > 30 µM

Would you mind telling me what DC50 value was observed for Cc1ccc(CN2CCC(c3ccc4c(c3)CN(C3CCC(=O)NC3=O)C4=O)CC2)cc1 (centres unmarked) ?
> 50 µM

Would you mind telling me what DC50 value was observed for N#CCOc1ccc(CN2CCC(c3ccc4c(c3)CN(C3CCC(=O)NC3=O)C4=O)CC2)cc1 (centres unmarked) ?
> 30 µM

###

target: IKZF2 (Homo sapiens, UniProt Q96SW2+Q9UKS7); test: Prolabel quantification of IKZF2 protein levels in 293GT cells; format: cell-based; conditions: Prolabel assay, 293GT cells; read-out: IKZF2 EC50
Sequence (Q9UKS7 whole entry, one chain of several): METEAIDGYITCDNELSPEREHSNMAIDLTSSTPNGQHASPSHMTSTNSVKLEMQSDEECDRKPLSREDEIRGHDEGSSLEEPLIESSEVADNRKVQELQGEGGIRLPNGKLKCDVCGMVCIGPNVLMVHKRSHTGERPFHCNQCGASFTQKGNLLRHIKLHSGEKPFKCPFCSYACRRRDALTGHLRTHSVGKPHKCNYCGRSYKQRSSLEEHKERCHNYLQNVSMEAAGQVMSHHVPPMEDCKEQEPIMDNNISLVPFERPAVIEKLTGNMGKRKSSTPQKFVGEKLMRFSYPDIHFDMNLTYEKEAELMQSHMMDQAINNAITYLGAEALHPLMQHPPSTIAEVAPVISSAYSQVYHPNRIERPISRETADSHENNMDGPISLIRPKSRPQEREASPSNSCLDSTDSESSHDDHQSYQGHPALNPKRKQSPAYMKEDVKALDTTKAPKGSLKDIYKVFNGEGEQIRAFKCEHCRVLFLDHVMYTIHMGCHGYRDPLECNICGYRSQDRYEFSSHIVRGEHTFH
readout: DC50 (µM)

> print(dat)
                                   compound  unit  reported
1  CC(=O)Nc1ccc(CN2CCC(c3ccc4c(c3)CN(C3CCC(=O)NC3=O)C4=O)CC2)cc1 (stereo not shown) [Compound I-86]    µM     0.029

(1) Cc1ccc2c(CN3CCC(c4ccc5c(c4)CN(C4CCC(=O)NC4=O)C5=O)CC3)c[nH]c2c1 (stereo not shown) [Compound I-149]
(2) O=C1CCC(N2Cc3cc(C4CCN(Cc5nc6ccsc6c(=O)[nH]5)CC4)ccc3C2=O)C(=O)N1 (stereo not shown) [Compound I-213]
Would you let me know which has the greater DC50 value, 1 or 2 ? Your choice should be expressed through its label.
2
(2: 0.045 µM, 1: 0.016 µM)

(I) O=C1CCC(N2Cc3cc(C4CCCN(Cc5ccccc5)CC4)ccc3C2=O)C(=O)N1 (single isomer, unassigned) [Compound I-190]
(II) O=C1CCC(N2Cc3cc(C4CCN(Cc5cccc(OC(F)F)c5)CC4)ccc3C2=O)C(=O)N1 (stereo not shown) [Compound I-79]
Of the pair I and II , name the member with the lesser recorded DC50. Your choice should be expressed through its label.
II
(II: 0.003 µM, I: 0.17 µM)

###

biological target: IKZF2 (Homo sapiens, UniProt Q96SW2+Q9UKS7); experiment: Prolabel quantification of IKZF2 protein levels in 293GT cells; type: cell-based; conditions: Prolabel assay, 293GT cells; read-out: IKZF2 EC50
readout: DC50 (nM)

Before answering, review these 3 worked examples.
> print(dat)
                                   molecule  readout  reported
1  O=C1CCC(N2Cc3cc(C4CCN(Cc5ccc(CO)cc5)CC4)ccc3C2=O)C(=O)N1 (stereo not shown) [Compound I-32]     DC50        46
2  CC(C)Sc1ccc(CN2CCC(c3ccc4c(c3)CN(C3CCC(=O)NC3=O)C4=O)CC2)cc1 (stereo not shown) [Compound I-228]     DC50        10
3  O=C1CCC(N2Cc3cc(C4CCN(Cc5ccc(Cl)cc5Cl)CC4)ccc3C2=O)C(=O)N1 (stereo not shown) [Compound I-113]     DC50        15

(I) O=C1CCC(N2Cc3cc(C4CCN(C(CO)c5ccccc5)CC4)ccc3C2=O)C(=O)N1 (single isomer, unassigned) [Compound I-249]
(II) O=C1CCC(N2Cc3cc(C4CCN(Cc5ccc(F)cc5F)CC4)ccc3C2=O)C(=O)N1 (stereo not shown) [Compound I-101]
(III) Cc1ccccc1CN1CCC(c2ccc3c(c2)CN(C2CCC(=O)NC2=O)C3=O)CC1 (stereo not shown) [Compound I-157]
(IV) O=C1CCC(N2Cc3cc(C4CCN(Cc5ccc6c(c5)CCCC6)CC4)ccc3C2=O)C(=O)N1 (stereo not shown) [Compound I-175]
Hey, quick one: sort these by DC50, low to high? Answer by writing out the labels in the requested order.
IV, II, III, I
